biological target: CYP3A4 (Homo sapiens); test: CYP3A4-catalyzed NEN 4-hydroxylation in HLMs (fluorescence-based assay); conditions: NEN 4-hydroxylation, HLMs
Sequence (P08684 whole entry): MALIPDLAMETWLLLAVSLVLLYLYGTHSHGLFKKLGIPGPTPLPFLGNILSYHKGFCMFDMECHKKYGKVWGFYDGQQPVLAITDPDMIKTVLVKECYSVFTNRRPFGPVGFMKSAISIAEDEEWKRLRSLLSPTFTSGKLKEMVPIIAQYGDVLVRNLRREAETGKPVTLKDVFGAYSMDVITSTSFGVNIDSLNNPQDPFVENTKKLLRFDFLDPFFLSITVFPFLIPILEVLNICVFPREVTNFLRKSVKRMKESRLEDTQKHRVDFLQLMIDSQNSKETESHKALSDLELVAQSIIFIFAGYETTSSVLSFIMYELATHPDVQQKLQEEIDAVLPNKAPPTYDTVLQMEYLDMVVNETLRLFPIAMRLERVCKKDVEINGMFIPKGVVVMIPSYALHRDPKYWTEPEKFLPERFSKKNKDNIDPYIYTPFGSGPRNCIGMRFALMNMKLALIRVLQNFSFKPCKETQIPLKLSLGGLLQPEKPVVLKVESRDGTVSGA
pIC50: −log10 of the molar value.
Metric: pIC50

1. C=C(C)[C@@H]1CC[C@]2(C(=O)O)CC[C@]3(C)[C@H](CC[C@@H]4[C@@]5(C)CCC(=O)C(C)(C)[C@@H]5CC[C@]43C)[C@@H]12 [betulonic acid]    6.02

###

assay: Pharmacokinetic interaction between Styrax and midazolam (i.v. and i.g.) in rats; details: male, Sprague-Dawley, rat, plasma, iv, 5 mg/kg, AUC(0-inf), rats; midazolam i.v. 5 mg/kg; pretreated with Soybean oil
Metric: AUC(0-inf) (ng·h/mL)

1. Cc1ncc2n1-c1ccc(Cl)cc1C(c1ccccc1F)=NC2    1320
